System: MOLT-4 leukemia
assay-comment: NCI-60 one-dose screen, 48 h (100 = growth as untreated, 0 = no growth, -100 = all killed)
assay-setup: 10 µM unless noted
Description: Growth inhibition of the MOLT-4 human tumor cell line is measured as a screen for anti-cancer activity. Cells are grown in 96 well plates and exposed to the test compound for 48 hours. Compounds are tested at a single concentration, which is 10^-5 M for most compounds. The reported endpoint is percent growth (GI% or GIPRCNT), where numbers from 0 - 100% represent growth inhibition, and numbers from -100% - 0 represent cell death. For example, a value of 40 represents 60% growth inhibition. […]
About 83,000 compounds went through this panel and 20% of them were active in at least one assay; those are over-represented in the sample as a whole.
growth of 40% or higher: true (1). Under 40%: false (0).

Evaluate Nc1cccc(NC(=O)C(=O)Nc2cccc(N)c2)c1 : growth at minimum 40%?
true (1)

Do the same for CC/C=C\C[C@H](F)C/C=C1/C(=O)C=C[C@@H]1C/C=C\CCCC(=O)OC please
false (0)

Now the compound C=C(C[n+]1ccccc1)[C@@H]1CC[C@]2(C(=O)OC)CC[C@]3(C)[C@H](CC[C@@H]4[C@@]5(C)CC[C@H](O)C(C)(C)[C@@H]5CC[C@]43C)[C@@H]12
true (1)

Repeat with COc1cccc(-c2nc3sccn3c2-c2ccnc(NCCCNS(=O)(=O)c3ccccc3)c2)c1
false (0)

And the next one, Cn1c2ccccc2c2c3c(c4c5ccccc5[nH]c4c21)C(=O)N(N)C3=O ?
false (0)

# repeat for COc1ccc(/C(=C/c2ccc3ccccc3c2)c2nn[nH]n2)cc1OC
false (0)

Cool, now Nc1ccc(N2CCOCC2)cc1
true (1)

Thanks! And O=C1CC(c2nc3ccccc3s2)CN1C1CCCCC1 (stereo unspecified) ?
true (1)

What do we get for COc1cccc(-n2cc(-c3nc(Nc4cc(C)[nH]n4)c4ccccc4n3)nn2)c1 ?
false (0)

Try COC(=O)C12C3C(=O)N(c4ccc(OC)cc4)C(=O)C3C(c3cn(-c4ccccc4)nc3C)N1[C@H](c1cn(-c3ccccc3)nc1C)[C@@H]1C(=O)N(c3ccc(OC)cc3)C(=O)[C@@H]12 (stereo partly specified) next.
true (1)
